B1: minF1; the commonest letter at each place (parent)
chain: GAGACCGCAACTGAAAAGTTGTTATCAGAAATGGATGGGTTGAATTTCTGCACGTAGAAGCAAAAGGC

# Variants of: B1
# experimentNotes: fraction ligated after 30 min (ligated reads / total reads); higher = more ligase activity
# measurementContext: with F1*subA RNA substrate (template-directed ligation), 42 °C
Note to self: values exactly at 0.006 are y. So fraction ligated at or above 0.006 is y, below is n.

Example cases with answers are listed next.
GAGACCGCAACTGAAAAGTTGTTATCAGTAATGGACGGGTTGAATTTCTGCACGTAGAAGCAAAAGGC [A29T T36C] = y
GAGACCGCAACTGAAAAGTTGTTATCAAACATGGATGGGTTGAATTTCTGCACGTAGAAGCAAAAGGC [G28A A30C] = y
GAGACCGCAACTGAAAAGTTGTTATCAGAAAAGGAGGGGTTGAATTTCTGCACGTAGAAGCAAAAGGC [T32A T36G] = n
GAGACCGCAACTGAAAAGTTGTTATCAGATACGGATGGGTTGAATTTCTGCACGTAGAAGCAAAAGGC [A30T T32C] = y
GAGACCGCAACTGAAAAGTTGTTATCAAAAATGGGTGGGTTGAATTTCTGCACGTAGAAGCAAAAGGC [G28A A35G] = y

Threshold query (fraction ligated >= 0.006) on GAGACCGCAACTGAAAAGTTGTTATCTGAAATGGATTGGTTGAATTTCTGCACGTAGAAGCAAAAGGC [A27T G37T]
y

What about GAGACCGCAACTGAAAAGTTGTTACCAGAAATGGATGGGTTCAATTTCTGCACGTAGAAGCAAAAGGC [T25C G42C] ?
n

What about GAGACCGCAACTGAAAAGTTGTTATCGGAAGTGGATGGGTTGAATTTCTGCACGTAGAAGCAAAAGGC [A27G A31G] ?
y

What about GAGACCGCAACTGAAAAGTTGTTATCAGAACTGGATTGGTTGAATTTCTGCACGTAGAAGCAAAAGGC [A31C G37T] ?
y

What about GAGACCGCAACTGAAAAGTTGTTATCAGAAATGGTTGGGTTGGATTTCTGCACGTAGAAGCAAAAGGC [A35T A43G] ?
n
